Reported pEC50 is given for each of the following binders.
# TARGET_UNDER_TEST: T1, human SLC34A2 (human, UniProt O95436 1-690)
# T1 construct: whole, on cells; also called human solute carrier 34 A2; NaPi2b
# T1 sequence (looked up): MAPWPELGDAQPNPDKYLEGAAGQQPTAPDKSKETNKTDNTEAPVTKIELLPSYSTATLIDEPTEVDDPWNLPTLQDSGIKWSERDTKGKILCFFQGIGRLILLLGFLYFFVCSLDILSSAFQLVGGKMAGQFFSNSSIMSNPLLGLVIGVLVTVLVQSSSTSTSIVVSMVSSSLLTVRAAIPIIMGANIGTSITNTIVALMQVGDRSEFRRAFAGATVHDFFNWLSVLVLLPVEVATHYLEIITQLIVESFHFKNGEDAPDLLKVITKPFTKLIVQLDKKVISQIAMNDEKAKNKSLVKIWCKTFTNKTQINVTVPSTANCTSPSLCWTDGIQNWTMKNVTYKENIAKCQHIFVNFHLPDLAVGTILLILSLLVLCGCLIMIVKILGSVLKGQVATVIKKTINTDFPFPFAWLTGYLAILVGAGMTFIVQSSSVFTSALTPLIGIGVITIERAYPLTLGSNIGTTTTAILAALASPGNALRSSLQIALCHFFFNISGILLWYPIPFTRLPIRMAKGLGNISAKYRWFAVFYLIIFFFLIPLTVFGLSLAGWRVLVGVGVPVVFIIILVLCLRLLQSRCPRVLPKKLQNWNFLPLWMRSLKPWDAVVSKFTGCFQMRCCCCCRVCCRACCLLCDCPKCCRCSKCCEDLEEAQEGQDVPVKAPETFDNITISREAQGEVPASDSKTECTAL
# PROTOCOL: FACS, RMG-1 cells
By convention, pEC50 is the negative base-10 log of a molar concentration.

[Q] Supply measured pEC50 of xi63A11D5B4 hIgG1 (antibody, V domains shown, chimeric, hIgG1) VH: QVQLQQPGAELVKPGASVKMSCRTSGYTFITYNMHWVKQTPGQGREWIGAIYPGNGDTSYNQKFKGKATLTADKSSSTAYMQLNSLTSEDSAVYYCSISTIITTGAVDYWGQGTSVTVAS VL: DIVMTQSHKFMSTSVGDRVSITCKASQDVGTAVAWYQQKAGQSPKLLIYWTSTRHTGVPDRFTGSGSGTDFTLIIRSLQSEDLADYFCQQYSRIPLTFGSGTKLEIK in your reply.
[A] 7.84

[Q] Supply measured pEC50 of 63A11D5B4.p1.z5 hIgG1 (antibody, V domains shown, humanized hIgG1) VH: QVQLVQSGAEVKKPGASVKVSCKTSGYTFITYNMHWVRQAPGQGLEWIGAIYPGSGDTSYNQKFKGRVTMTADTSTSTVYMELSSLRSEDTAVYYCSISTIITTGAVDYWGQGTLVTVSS VL: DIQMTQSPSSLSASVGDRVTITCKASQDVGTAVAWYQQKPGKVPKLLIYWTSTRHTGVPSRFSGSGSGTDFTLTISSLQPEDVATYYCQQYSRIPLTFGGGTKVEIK in your reply.
[A] 7.44

[Q] Supply measured pEC50 of 63A11D5B4.p1.z9 hIgG1 (antibody, V domains shown, humanized hIgG1) VH: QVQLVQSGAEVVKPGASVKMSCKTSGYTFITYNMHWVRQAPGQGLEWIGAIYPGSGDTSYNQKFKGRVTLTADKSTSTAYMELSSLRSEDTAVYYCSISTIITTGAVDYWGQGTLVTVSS VL: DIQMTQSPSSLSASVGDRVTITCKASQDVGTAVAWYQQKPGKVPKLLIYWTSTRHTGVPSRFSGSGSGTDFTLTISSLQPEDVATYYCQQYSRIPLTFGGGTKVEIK in your reply.
[A] 7.55

Values from patent US20240301052A1
